- Target: T1, DcR3 (UniProt O95407 30-300, limits assumed)
- T1 construct: the construct is not described; also called decoy receptor DcR3; TNFRSF6B
- T1 sequence (looked up): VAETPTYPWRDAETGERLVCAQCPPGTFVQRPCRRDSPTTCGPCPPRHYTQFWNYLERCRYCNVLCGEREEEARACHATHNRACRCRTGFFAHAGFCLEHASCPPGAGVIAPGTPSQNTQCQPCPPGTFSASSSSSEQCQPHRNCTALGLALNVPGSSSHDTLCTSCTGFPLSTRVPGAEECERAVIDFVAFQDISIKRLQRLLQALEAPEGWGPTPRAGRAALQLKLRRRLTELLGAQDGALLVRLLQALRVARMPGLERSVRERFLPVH
- Protocol: ELISA, DcR3
Measurement Name: Rel EC50

As a guide, the following entries are already answered.
# Binder, Measurement Name, Observed Measurement
rows = [
    ("TL1W115 (His-TEV-TL1A T192F) (ligand, also called TL1W115 (T192F)) HHHHHHENLYFQGLKGQEFAPSHQQVYAPLRADGDKPRAHLTVVRQTPTQHFKNQFPALHWEHELGLAFTKNRMNYTNKFLLIPESGDYFIYSQVTFRGMTSECSEIRQAGRPNKPDSITVVITKVTDSYPEPFQLLMGTKSVCEVGSNWFQPIYLGAMFSLQEGDKLMVNVSDISLVDYTKEDKTFFGAFLL", "Rel EC50", "2.3 ratio (head: nM)"),
    ("TL1W43 (His-TEV-TL1A Y188S) (ligand, also called TL1W43 (Y188S)) HHHHHHENLYFQGLKGQEFAPSHQQVYAPLRADGDKPRAHLTVVRQTPTQHFKNQFPALHWEHELGLAFTKNRMNYTNKFLLIPESGDYFIYSQVTFRGMTSECSEIRQAGRPNKPDSITVVITKVTDSSPEPTQLLMGTKSVCEVGSNWFQPIYLGAMFSLQEGDKLMVNVSDISLVDYTKEDKTFFGAFLL", "Rel EC50", "15.7 ratio (head: nM)"),
]

The record that follows has no Rel EC50 shown yet.
Memo: TL1W125 (His-TEV-TL1A N207E) (ligand, also called TL1W125 (N207E)) HHHHHHENLYFQGLKGQEFAPSHQQVYAPLRADGDKPRAHLTVVRQTPTQHFKNQFPALHWEHELGLAFTKNRMNYTNKFLLIPESGDYFIYSQVTFRGMTSECSEIRQAGRPNKPDSITVVITKVTDSYPEPTQLLMGTKSVCEVGSEWFQPIYLGAMFSLQEGDKLMVNVSDISLVDYTKEDKTFFGAFLL , reported Rel EC50: 2.1 ratio (head: nM)
